Data provenance is PubChem BioAssay AID200.

- Test system: B6C3F1 mice, B16 melanoma ip, median survival T/C
- assay-method-text: NCI In Vivo Anticancer Drug Screen. Data for tumor model B16 Melanoma (intraperitoneal) in B6C3F1 mice
- settings: endpoint: median survival time; dose: 3.0 mg/kg/injection; schedule: Q01DX009 (ip); vehicle: saline; higher = longer survival
Toxic doses and inconclusive results are not listed.
property-label: T/C

Recorded T/C, per entry:
O=CC(O)C(O)C(O)C(O)C(=O)O.[NH-]C1CCCCC1[NH-].[Pt+2] (centres undefined) | 187 % of control
CCCCCCCC(=O)N/N=C(\CO)[C@]1(O)Cc2c(O)c3c(c(O)c2[C@@H](OC2CC(N)C(O)C(C)O2)C1)C(=O)c1c(OC)cccc1C3=O (some centres undefined) | 196 % of control
[N-]=[N+]=[N-] | 90 % of control

Q: Annotate the molecule COc1cccc2c1C(=O)c1c(O)c3c(c(O)c1C2=O)C[C@H](O)C[C@@H]3OC1CC(N)C(O)C(C)O1 (some centres undefined) with its measured T/C.
Result: 175 % of control
